Tested on: OVCAR-5 complex spheroids with HUVEC/MSC, viability, % test/control
Assay: Anticancer human tumor OVCAR-5 cell line growth inhibition [AhR];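 further: spheroids exposed to compounds for 7 days; 100% = DMSO vehicle control wells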
Conditions: second compound 1 µM; first compound 0.1 µM; hits give low values
assayMetric: viability, T/C (%)
Give bare numbers, in %.

Worked examples, 5 compounds total:
compound	assayMetric	reading
COc1ccc([C@@H](O)c2cc(-c3ncnc4cc(N5CCOCC5)ccc34)c(F)cc2Cl)nn1 + Cc1ccccc1N=Nc1ccc(NC(=O)c2ccnn2C)c(C)c1	viability, T/C	107
O=C(c1cc(Cc2n[nH]c(=O)c3ccccc23)ccc1F)N1CCN(C(=O)C2CC2)CC1 + Cc1ccccc1N=Nc1ccc(NC(=O)c2ccnn2C)c(C)c1	viability, T/C	114
COc1ccc([C@@H](O)c2cc(-c3ncnc4cc(N5CCOCC5)ccc34)c(F)cc2Cl)nn1 + CC(CO)NC(=O)c1cc(-c2ccc(Cl)cc2)nn(-c2cnn(C)c2)c1=O	viability, T/C	115
O=C(c1cc(Cc2n[nH]c(=O)c3ccccc23)ccc1F)N1CCN(C(=O)C2CC2)CC1 + Cc1cncc(-c2nc(NCCc3c[nH]c4ccccc34)c3ncn(C(C)C)c3n2)c1	viability, T/C	87.7
COc1cc(C2c3cc4c(cc3C(OC3OC5COC(C)OC5C(O)C3O)C3COC(=O)C23)OCO4)cc(OC)c1O (stereo unspecified) + CC(CO)NC(=O)c1cc(-c2ccc(Cl)cc2)nn(-c2cnn(C)c2)c1=O	viability, T/C	112

Next item in the queue.
**Query** // fetch viability, T/C; item: CC1(C)CCC(CN2CCN(c3ccc(C(=O)NS(=O)(=O)c4ccc(NCC5CCOCC5)c([N+](=O)[O-])c4)c(Oc4cnc5[nH]ccc5c4)c3)CC2)=C(c2ccc(Cl)cc2)C1 + CC(CO)NC(=O)c1cc(-c2ccc(Cl)cc2)nn(-c2cnn(C)c2)c1=O ; system: OVCAR-5 complex spheroids with HUVEC/MSC, viability, % test/control
**Result** 116
